The reported measurements were obtained from patent US10144742B2.

Reported inhibition at 1 µM is given for each of the following molecules.
molecular target: hNAMPT protein (Homo sapiens (Human), UniProt P43490); assay: NAMPT enzyme assay (TR-FRET/HTRF, BodiPY ligand, anti 6His-Tb); format: binding; conditions: compound concentration 1 μM; read-out: Percent Inhibition
Sequence (P43490 whole entry): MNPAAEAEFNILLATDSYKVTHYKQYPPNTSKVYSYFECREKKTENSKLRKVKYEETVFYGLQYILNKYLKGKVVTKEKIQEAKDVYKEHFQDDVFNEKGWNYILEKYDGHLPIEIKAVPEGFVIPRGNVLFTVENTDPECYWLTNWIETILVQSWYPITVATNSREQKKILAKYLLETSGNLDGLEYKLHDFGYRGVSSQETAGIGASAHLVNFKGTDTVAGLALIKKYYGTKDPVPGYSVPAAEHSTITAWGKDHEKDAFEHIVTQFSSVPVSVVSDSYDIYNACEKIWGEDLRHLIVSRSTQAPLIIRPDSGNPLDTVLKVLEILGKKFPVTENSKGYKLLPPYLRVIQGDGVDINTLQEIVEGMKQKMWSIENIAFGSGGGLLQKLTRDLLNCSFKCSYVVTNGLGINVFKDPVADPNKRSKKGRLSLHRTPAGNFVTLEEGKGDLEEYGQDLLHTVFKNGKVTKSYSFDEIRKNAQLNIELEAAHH
Your answer is read as %, so omit the unit and give the number.

Illustrative cases are given below, each with its answer.
> print(dat)
                           structure.string  measured.number
1  CC(C)Oc1nc2ccc(C(=O)NCCCc3nnc[nH]3)cc2nc1-c1ccc(F)cc1               62
2  O=C(NCCCn1ccnc1)c1ccc2nc(N3CCC(N4CCC(O)CC4)CC3)c(-c3ccccc3)nc2c1               95
3  NC(=O)c1ccc(-c2nc3cc(C(=O)NCCCn4ccnc4)ccc3nc2-c2ccccc2)cc1               20

// next item, inhibition at 1 µM requested
The molecule listed as `COc1cccc(-c2nc3cc(C(=O)NCCc4cccnc4)ccc3nc2N2CCC(N3CCOCC3)CC2)c1` has a reported inhibition at 1 µM of 98
